Cited source: the supplement of paper PMC6555819

For each entry below, report its PBM binding z-score value.
# Test system: RARa homodimer (NR concentration 270 nM)
# testDetails: PBM binding z-score (relative to random genomic background probes); higher = stronger binding; sequences stand for … in GC…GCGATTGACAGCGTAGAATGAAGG
Numbers only.

Example entries and their recorded answers appear below.
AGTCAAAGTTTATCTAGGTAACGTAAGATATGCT
0.429
GCTAGTTGGTCAGTAAAAGGTGACACACCGGTCG
0.0812
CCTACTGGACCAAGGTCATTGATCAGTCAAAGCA
0.91

Give PBM binding z-score for each of the items listed below.
1. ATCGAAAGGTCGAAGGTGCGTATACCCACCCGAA
2. AGTCAAAGTTCAGGACGACGTAACGTAAAGCACG
3. ATCGAAAGGTCCAAGGTGAGTATACCCACCCGAA

Resp:
1. 0.303
2. 0.264
3. 0.706

* * *

# Test system: PPARg:RXRa 90nM:30nM, anti-RXR (NR concentration 90 nM, RXRa partner concentration 30 nM)
# testDetails: PBM binding z-score (relative to random genomic background probes); higher = stronger binding; sequences stand for … in GC…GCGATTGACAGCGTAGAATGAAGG
For each entry below, report its PBM binding z-score value.

ATATGTAGGTTAGCTGAGGTCATTCAGACTAGGC
4.11
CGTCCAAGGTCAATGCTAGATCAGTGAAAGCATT
2.91
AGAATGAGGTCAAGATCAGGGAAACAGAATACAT
6.74
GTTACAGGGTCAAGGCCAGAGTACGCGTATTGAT
4.49
CCTGCTAGGTCAAAGGTCAGCTAAAGCAGCTCGC
12.6

Give PBM binding z-score for each of the items listed below.
1. AGTCAAAGTTGAGGACGAGGTAACGTAAAGCACG
2. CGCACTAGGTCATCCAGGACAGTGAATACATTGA

Resp:
0.984
5.62

Give PBM binding z-score for each of the items listed below.
1. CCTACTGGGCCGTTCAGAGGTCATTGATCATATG
2. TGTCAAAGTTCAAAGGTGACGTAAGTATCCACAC

Resp:
[1.67, 7.61]

Give PBM binding z-score for each of the items listed below.
1. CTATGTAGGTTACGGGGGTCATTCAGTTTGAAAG
2. CGTCAAAGTCCAAGGTAACGTAACAGAAAGCAGC
3. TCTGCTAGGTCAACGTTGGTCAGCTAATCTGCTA
4. CGAACGAGGTCACCAGGACAGTGAAGAGGTTGGA
5. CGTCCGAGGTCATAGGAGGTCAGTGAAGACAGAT
6. CAAAATAGGTCAAAGGTCAAAGTCGAGCCAACCA
7. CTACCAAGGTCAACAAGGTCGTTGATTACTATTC

Resp:
[7.92, 0.303, 2.71, 6.73, 5.53, 13.3, 4.51]

Give PBM binding z-score for each of the items listed below.
1. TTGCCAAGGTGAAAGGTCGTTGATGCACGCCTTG
2. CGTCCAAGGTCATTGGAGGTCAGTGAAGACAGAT
3. CCTCGGAGGACAGAAGGTCAAAGCTGTCCGCTTT
4. TAGCCTAGGTCATGCGGGCCAATATAGTGTCGGC
5. GGAACGAGGTCAAAGTTGATAGCATCTGTCGACG

Resp:
8.1
4.57
1.41
1.26
9.4

Give PBM binding z-score for each of the items listed below.
1. CAAACTAGTTCAAGAGGTCAAAGTCCGCTTCCCG
2. CCTAGTTGTTCAGGAGGTCACACACCGGATATGA
3. CAAACTAGGTCAAAAGGTCAAAGTCCGCTTCCCG
4. CAAACAAGGTCACAGAGGTCAAAGTCCGTGCGTA
5. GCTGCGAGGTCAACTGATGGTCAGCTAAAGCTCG
6. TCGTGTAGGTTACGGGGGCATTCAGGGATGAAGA
7. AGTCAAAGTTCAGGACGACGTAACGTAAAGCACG

Resp:
4.8
1.87
9.1
7.73
5.05
5.8
4

Give PBM binding z-score for each of the items listed below.
1. CAAAATAGGTCACCGGAAGGTCAAAGTCCGCATG
2. CCTTACGGGTCCCTCCAGGTTATAGCATCGGAGT
3. CGTCAAAGTTCAACTAAGGTCACGTAAAGCACGC
4. AGTCAAAGGTCATCTAGGTAACGTAAGATATGCT
5. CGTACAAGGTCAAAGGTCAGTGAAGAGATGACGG
6. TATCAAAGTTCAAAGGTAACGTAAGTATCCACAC
7. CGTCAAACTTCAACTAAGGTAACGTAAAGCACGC
8. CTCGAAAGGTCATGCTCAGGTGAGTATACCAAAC

Resp:
1: 7.69; 2: -0.697; 3: 5.51; 4: 8.3; 5: 11.9; 6: 5.24; 7: 0.111; 8: 6.89

Give PBM binding z-score for each of the items listed below.
1. TATACAGGGTCAAAGGTCAGAGTACGAATGTCGA
2. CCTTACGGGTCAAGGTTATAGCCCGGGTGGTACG
3. TATACAGGGTCAAAGGCCAAAGTACGAATGTCGA
4. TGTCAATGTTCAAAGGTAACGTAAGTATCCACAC

Resp:
1. 10.9
2. 3.74
3. 8.54
4. 3.32

Give PBM binding z-score for each of the items listed below.
1. TAGCCTAAGTCATGCGGGCCAGTATAGTGTCGGC
2. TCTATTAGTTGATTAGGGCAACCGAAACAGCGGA

Resp:
1. -0.77
2. 2.63

* * *

# System: RARg homodimer (NR concentration 270 nM)
# testDetails: PBM binding z-score (relative to random genomic background probes); higher = stronger binding; sequences stand for … in GC…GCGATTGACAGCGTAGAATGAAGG
reportedMetric: PBM binding z-score
Answers are plain numbers.

Example entries and their recorded answers appear below.
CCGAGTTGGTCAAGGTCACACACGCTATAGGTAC
4.8
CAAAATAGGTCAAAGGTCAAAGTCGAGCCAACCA
7.97
TCTAGTTGGTCAAAGGTCACGCACTCGAAATGCG
7.23
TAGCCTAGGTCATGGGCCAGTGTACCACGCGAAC
4.65
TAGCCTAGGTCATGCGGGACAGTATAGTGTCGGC
4.49
TTACCAAGGTGAAAGGTCGTTGCTGCACGCCTTG
1.94
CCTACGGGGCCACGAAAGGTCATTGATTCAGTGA
5.3
TCTAGTAGGTCAAAGGTCACACACTCGAAATGCG
7.76
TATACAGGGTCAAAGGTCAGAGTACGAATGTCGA
7.28
AATACAGGGTCACGAGGCCAGAGTAGGTACGAAT
5.99

Give PBM binding z-score for each of the items listed below.
1. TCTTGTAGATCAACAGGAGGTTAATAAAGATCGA
2. CGAACAAGGTCATTGACAGGACAGTGAATAGTAA

Resp:
0.301
5.95

* * *

# System: PPARg DBDmut:RXRa IVT, anti-PPARg (DBD mutation: PPARg1 K132A/R137A, NR concentration 270 nM, RXRa partner concentration 90 nM)
# testDetails: PBM binding z-score (relative to random genomic background probes); higher = stronger binding; sequences stand for … in GC…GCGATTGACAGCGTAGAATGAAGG
Output: class label from PBM binding z-score. Mapping: A: < 0.6; B: ≥ 0.6 and < 2; C: ≥ 2

As a guide, the following entries are already answered.
AATACGGGGTCATCGTAGGCCAGAGTACGCACAG
B
TTACCAAGGTGAACGGTCGTTGATGCACGCCTTG
B
GCTGCTAGGTCAACTGATGGTCATCTAAAGCTCG
A
TAGCCTAGGTCACATCGGGCCAGTATACGCTATA
A
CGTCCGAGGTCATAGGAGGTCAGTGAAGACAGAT
B
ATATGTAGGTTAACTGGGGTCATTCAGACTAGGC
B
TCTAGTTGGTCACGGAGGTCCCACACGACGGGTA
B
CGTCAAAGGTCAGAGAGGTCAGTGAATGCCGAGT
B
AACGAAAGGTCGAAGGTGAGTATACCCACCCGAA
B
CAAAATAGGTCACAGAGGTCAAAGTCCGTGCGTA
B

Req: Please report the category associated with "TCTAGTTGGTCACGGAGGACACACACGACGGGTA" , nothing else.
Resp: B

Req: Another: "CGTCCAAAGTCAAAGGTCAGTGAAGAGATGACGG"
Resp: A

Req: Another: "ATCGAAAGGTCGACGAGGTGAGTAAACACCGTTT"
Resp: A

Req: Another: "ATCGAAAGGTCCACGAGGTGAGTATACACCGTTT"
Resp: A

* * *

# Tested on: PPARg:RXRa (NR concentration 180 nM, RXRa partner concentration 90 nM)
# testDetails: PBM binding z-score (relative to random genomic background probes); higher = stronger binding; sequences stand for … in GC…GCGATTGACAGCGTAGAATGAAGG
Output: class label from PBM binding z-score. Mapping: one: < 4; two: ≥ 4 and < 8; three: ≥ 8

As a guide, the following entries are already answered.
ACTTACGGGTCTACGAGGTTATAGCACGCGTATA
one
CCTACTGGGCCAAAAAGTTCATTGATGCCGATAA
one
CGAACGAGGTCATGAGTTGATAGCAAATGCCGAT
two
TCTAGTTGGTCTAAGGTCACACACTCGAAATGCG
two
AGTCAAAGTTCAGGACGAGGTAACGTTAAGCACG
two
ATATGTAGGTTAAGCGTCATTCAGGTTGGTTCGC
two
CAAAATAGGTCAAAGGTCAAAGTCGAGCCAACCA
three
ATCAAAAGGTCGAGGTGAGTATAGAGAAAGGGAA
one
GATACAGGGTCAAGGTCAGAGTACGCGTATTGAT
two
GCTTAAGGGTCAAAGGTTATAGCATGAATAGAAT
three

Now for a further sequence.
Req: Please report the category associated with "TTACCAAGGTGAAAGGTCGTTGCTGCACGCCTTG" , nothing else.
Resp: three
